Target: T1, human IL-17F (human, UniProt Q96PD4 31-163)
T1 construct: made in Hek293 cells (GenBank AF384857); also called hIL-17F; hIL17F
T1 sequence: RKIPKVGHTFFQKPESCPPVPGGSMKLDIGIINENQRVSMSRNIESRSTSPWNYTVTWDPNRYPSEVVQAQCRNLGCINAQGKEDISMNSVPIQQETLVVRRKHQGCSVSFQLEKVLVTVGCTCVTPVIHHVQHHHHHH
Test: AlphaScreen IL-17F-IL-17RC; vs IL17MS16A04

Binder	IC50 fold difference vs WT
IL17MS3059 (VHH, variant of IL17MS16A04; Kabat numbering) VHH: DVQLVESGGGLVQPGGSLRLSCAASGRTFSSYVVGWFRQAPGKEREFVGAISGSGESIYYAVSEKGRFTISRDNSKNTLYLQMNSLRPEDTAVYYCTADQEFGYLRFGRSEYWGQGTLVTVSS	6.7 fold
IL17MS3062 (VHH, variant of IL17MS16A04; Kabat numbering) VHH: EVQLVESGGGLVQPGGSLRLSCAASGRTFSSYVVGWFRQAPGKEREFVGAISGSGESIYYAVSEKGRFTISRDNSKNTLYLQMNSLRPEDTAVYYCTADQEFGYLRFGRSEYWGQGTLVTVSS	7.4 fold
